Assay: Plasma pharmacokinetics of LXI-15029 (LC-MS/MS, non-compartmental analysis)
Type: in vivo, human
Conditions: human, plasma, oral, 20 mg BID, multiple dose, cycle 1 day 28; 20 mg BID (n = 3); geometric mean (coefficient of variation); read-out: Cmin ss

>  <chemicalString>
CNC(=O)c1cccc(-c2ccc3c(N4C5CCC4COC5)nc(N4CCOC[C@@H]4C)nc3n2)c1

>  <concentration at 28 day>
1.61 ng/mL

$$$$

* * *

Assay: Plasma pharmacokinetics of LXI-15029 (LC-MS/MS, non-compartmental analysis)
Format: in vivo, human
Conditions: human, plasma, oral, 110 mg, single dose, cycle 1 day 1; 110 mg BID (n = 3); median (min, max); read-out: Tmax
measurementKind: Tmax (min)

>  <compound>
CNC(=O)c1cccc(-c2ccc3c(N4C5CCC4COC5)nc(N4CCOC[C@@H]4C)nc3n2)c1 [LXI-15029]

>  <recordedMeasurement>
42

$$$$

* * *

Test: Plasma pharmacokinetics of LXI-15029 (LC-MS/MS, non-compartmental analysis)
Assay type: in vivo, human
Details: human, plasma, oral; single dose, cycle 1 day 1; 40 mg BID (n = 3); geometric mean (coefficient of variation)

>  <compound>
CNC(=O)c1cccc(-c2ccc3c(N4C5CCC4COC5)nc(N4CCOC[C@@H]4C)nc3n2)c1 [LXI-15029]

>  <unitsSymbol>
ng·h/mL

>  <AUC(0-inf)>
1680

$$$$

* * *

Experiment: Plasma pharmacokinetics of LXI-15029 (LC-MS/MS, non-compartmental analysis)
Assay type: in vivo, human
Settings: human, plasma, oral, cycle 1 day 28, dose range 10 to 150 mg; read-out: median range of Tmax ss

>  <chemicalString>
CNC(=O)c1cccc(-c2ccc3c(N4C5CCC4COC5)nc(N4CCOC[C@@H]4C)nc3n2)c1

>  <Tmax>
0.67 to 1.47 h

$$$$

* * *

Assay: Plasma pharmacokinetics of LXI-15029 (LC-MS/MS, non-compartmental analysis)
Type: in vivo, human
Conditions: human, plasma, oral, 110 mg, single dose, cycle 1 day 1; 110 mg BID (n = 3); arithmetic mean ± standard deviation; read-out: t1/2 (converted)
measurementKind: half-life (h)

>  <compound>
CNC(=O)c1cccc(-c2ccc3c(N4C5CCC4COC5)nc(N4CCOC[C@@H]4C)nc3n2)c1 [LXI-15029]

>  <unitsSymbol>
h

>  <recordedMeasurement>
1.48

$$$$

* * *

Assay: Plasma pharmacokinetics of LXI-15029 (LC-MS/MS, non-compartmental analysis)
Type: in vivo, human
Settings: human, plasma, oral, 60 mg, multiple dose, cycle 1 day 28; 60 mg BID (n = 4); median (min, max)
measurementKind: Tmax at 28 day (min)

>  <chemicalString>
CNC(=O)c1cccc(-c2ccc3c(N4C5CCC4COC5)nc(N4CCOC[C@@H]4C)nc3n2)c1

>  <unitsSymbol>
min

>  <recordedMeasurement>
58.8

$$$$

* * *

Test: Plasma pharmacokinetics of LXI-15029 (LC-MS/MS, non-compartmental analysis)
Format: in vivo, human
Conditions: human, plasma, oral, 110 mg BID, multiple dose, cycle 1 day 28; 110 mg BID (n = 3); geometric mean (coefficient of variation); read-out: Cav ss

>  <compound>
CNC(=O)c1cccc(-c2ccc3c(N4C5CCC4COC5)nc(N4CCOC[C@@H]4C)nc3n2)c1 [LXI-15029]

>  <concentration at 28 day / ng/mL>
1080

$$$$

The measured values listed here are drawn from paper PMC10702058.
